Target: HRP
Assay: Kinetic rate of HRP oxidation of TMB substrate on anti-peroxidase coated microwell plate, A (650 nm)
Format: biochemical, horseradish
Conditions: Example 1: additive at 0.5M in TMB solution (3 mM TMB, 1.25 mM hydroxypropyl beta-cyclodextrin, pH 3.5); TMBW as supplied; 0-1 OD at 650 nm, 0-15 minutes
Field: Kinetics (mAu/min). Provide a value for each of the molecules that follow.
Answers are plain numbers, in mAu/min.

# example entries with known answers
| molecule | unitString | Kinetics (mAu/min) |
| --- | --- | --- |
| C[N+](C)(C)CC(=O)O [Betaine (N,N,N-trimethylglycine), N,N,N-trimethylglycine] | mAu/min | 71.917 |
| C[N+](C)(C)CCO.[Cl-] [Choline Chloride, choline chloride] | mAu/min | 2.855 |

Consider the additional molecule presented here.
Requested field: Kinetics (mAu/min). Item: O=S(=O)([O-])CCC[n+]1ccccc1 [3-(1-Pyridinio)-1-propanesulfonate, 3-(1-pyridinio)-1-propanesulfonate]
49.732

Source of measurements: patent US9588123B2
